- measured-on: HIV-1 RT (Human immunodeficiency virus type 1 group M subtype B, UniProt P03367)
- Construct: Reverse transcriptase enzyme from the LAV strain of Human Immunodeficiency Virus (HIV-1) (1) was isolated from the bacterial strain JM109; made in house; host or cells: E. coli JM109, clone pBRTprt1+ in vector pIBI21, lac promoter, IPTG induction
- protocol-notes: Reverse Transcriptase (RT) Assay: inhibition of RNA-dependent DNA polymerase activity
- Format: biochemical
- details: 10µg/ml; Table II, known compounds of formula IA; read-out: RT Inhibition % @ 10µg/ml
experimental-readout: inhibition at 10 µg/mL (%)
One number for each entry, in %.

Please review the following examples before continuing.
[[record]]
molecule = "CN1C(=O)c2cccnc2Nc2ccccc21"
experimental_readout = "inhibition at 10 µg/mL"
units_of_measure = "%"
measured_number = 43

[[record]]
molecule = "CC(C)CN1C(=O)c2cccnc2Nc2ccccc21"
experimental_readout = "inhibition at 10 µg/mL"
units_of_measure = "%"
measured_number = 33

[[record]]
molecule = "O=C1Nc2ccccc2Nc2ncccc21"
experimental_readout = "inhibition at 10 µg/mL"
units_of_measure = "%"
measured_number = 22

[[record]]
molecule = "CCN1C(=O)c2cccnc2Nc2cc(C)ccc21"
experimental_readout = "inhibition at 10 µg/mL"
units_of_measure = "%"
measured_number = 78

[[record]]
molecule = "CCN1C(=O)c2cccnc2Nc2cc(C)c(C)cc21"
experimental_readout = "inhibition at 10 µg/mL"
units_of_measure = "%"
measured_number = 95


Please look at the items below and tell me inhibition at 10 µg/mL for each one, in order.
1. CCN1C(=O)c2cccnc2Nc2ccccc21
2. Cc1ccc2c(c1)N(C)C(=O)c1c(C)cc(C)nc1N2

// result
69
58
